tested on: chitin synthase PsChs1 (Phytophthora sojae)
Construct: full-length PsChs1 with C-terminal tandem twin Strep tag and Flag tag; residues 40-860 built, 743-758 disordered; homodimer
Sequence (G4Z2L3 whole entry, the tested form may be a part): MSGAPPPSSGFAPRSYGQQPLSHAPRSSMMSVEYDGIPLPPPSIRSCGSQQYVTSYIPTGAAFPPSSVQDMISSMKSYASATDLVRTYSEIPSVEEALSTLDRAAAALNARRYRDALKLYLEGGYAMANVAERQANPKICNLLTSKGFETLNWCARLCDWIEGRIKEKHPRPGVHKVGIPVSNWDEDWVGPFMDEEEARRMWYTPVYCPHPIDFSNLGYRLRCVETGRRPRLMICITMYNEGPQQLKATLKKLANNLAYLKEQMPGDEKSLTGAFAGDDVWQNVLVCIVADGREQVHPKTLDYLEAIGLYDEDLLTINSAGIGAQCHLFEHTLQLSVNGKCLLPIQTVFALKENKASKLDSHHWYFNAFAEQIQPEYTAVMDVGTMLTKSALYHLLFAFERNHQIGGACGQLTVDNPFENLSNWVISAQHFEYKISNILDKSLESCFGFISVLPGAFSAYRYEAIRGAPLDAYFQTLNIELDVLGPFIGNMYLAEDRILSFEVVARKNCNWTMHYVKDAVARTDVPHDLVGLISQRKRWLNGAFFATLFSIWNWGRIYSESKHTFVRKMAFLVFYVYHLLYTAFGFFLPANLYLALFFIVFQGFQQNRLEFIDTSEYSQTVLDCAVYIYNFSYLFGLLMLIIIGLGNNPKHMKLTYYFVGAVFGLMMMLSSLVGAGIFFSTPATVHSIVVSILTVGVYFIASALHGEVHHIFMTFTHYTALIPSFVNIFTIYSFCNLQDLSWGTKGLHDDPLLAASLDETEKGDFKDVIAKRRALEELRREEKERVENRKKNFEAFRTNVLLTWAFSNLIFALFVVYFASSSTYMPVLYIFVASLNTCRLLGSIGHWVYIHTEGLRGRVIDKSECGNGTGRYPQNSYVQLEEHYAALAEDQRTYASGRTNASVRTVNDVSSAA
assay procedure: cryo-EM structure ([…] Å) plus enzyme inhibition kinetics (competitive Ki)
measure name: Ki (µM)
Number in µM, nothing else.

Lab book: Ki of C[C@@H]([C@H](N)C(=O)N[C@H](C(=O)O)[C@H]1O[C@@H](n2ccc(=O)[nH]c2=O)[C@H](O)[C@@H]1O)[C@H](O)c1ccc(O)cn1 [NikZ, nikkomycin Z] noted as 151
